- Test system: Escherichia coli, A15119
- Assay: In vitro antibacterial activity (MIC), serial 2-fold dilution
- Format: cell-based
- Experimental parameters: Escherichia coli A15119; Mueller-Hinton; 37°C, 17 h; read-out: Antibacterial Activity MIC E. coli
Kindly supply the reported MIC values for the records listed here.
Kindly answer with a numeric value in µg/mL, unit omitted.

Which MIC reading was recorded for the molecule C[C@@H](O)[C@H]1C(=O)N2C(C(=O)O)=C(SCCC#N)[C@H](CCSCCN)[C@H]12 [Example 131] ?
0.13

Then this molecule: C[C@@H](O)[C@H]1C(=O)N2C(C(=O)O)=C(SCCC#N)[C@H](CCCN)[C@H]12 [Example 41]
0.008

Then this molecule: C[C@@H](O)[C@H]1C(=O)N2C(C(=O)O)=C(SCc3ccncc3)[C@H](CCCN)[C@H]12 [Example 44]
0.03

Then this molecule: C[C@@H](O)[C@H]1C(=O)N2C(C(=O)O)=C(SCCC#N)[C@H](CCN3CCCC3)[C@H]12 [Example 63]
0.016

###

- Test system: Streptococcus pneumoniae, A9585
- Assay: In vitro antibacterial activity (MIC), serial 2-fold dilution
- Assay type: cell-based
- Experimental parameters: Streptococcus pneumoniae A9585; Mueller-Hinton; 37°C, 17 h; read-out: Antibacterial Activity MIC S. pn.
Structures can show the parent of a compound that is named as a salt.
Assay metric: MIC
Just the number plus its unit, please.

Notebook: pull reported MIC for Streptococcus pneumoniae, A9585, entry "C[C@@H](O)[C@H]1C(=O)N2C(C(=O)[O-])=C(SCCC#N)[C@H](CC[n+]3ccccc3)[C@H]12"
0.015 µg/mL

Then this molecule: "C[C@@H](O)[C@H]1C(=O)N2C(C(=O)O)=C(SCCC#N)[C@H](CCN)[C@H]12"
0.13 µg/mL

Then this molecule: C[C@@H](O)[C@H]1C(=O)N2C(C(=O)O)=C(SCCN3CCCC3)[C@H](CCCN)[C@H]12 [Example 120, acetic acid salt]
0.03 µg/mL

Then this molecule: "CSC1=C(C(=O)O)N2C(=O)[C@H]([C@@H](C)O)[C@H]2[C@H]1CCCCN"
2 µg/mL

###

Kindly supply the reported half-life at 100 µM values for the records listed here.
- Assay: Chemical stability in aqueous solution (half-life)
- Assay type: physicochemical
- Experimental parameters: 37°C, 10^-4 M, pH 7.4, aqueous solution; read-out: Half-life (T 1/2) (converted)
Structures can show the parent of a compound that is named as a salt.

Which half-life at 100 µM reading was recorded for the compound "C[C@@H](O)[C@H]1C(=O)N2C(C(=O)O)=C(SCc3csnn3)[C@H](CCNC(=N)N)[C@H]12" ?
32.5 h

Then this compound: "C[C@@H](O)[C@H]1C(=O)N2C(C(=O)O)=C(SCc3ccncc3)[C@H](CCCN)[C@H]12"
89 h

Then this compound: "C[C@@H](O)[C@H]1C(=O)N2C(C(=O)O)=C(SCCC#N)[C@H](CCN3CCN(C)CC3)[C@H]12"
47 h

Then this compound: "C[C@@H](O)[C@H]1C(=O)N2C(C(=O)O)=C(SCCC#N)[C@H](CCCCCN)[C@H]12"
136 h

Then this compound: "C[C@@H](O)[C@H]1C(=O)N2C(C(=O)O)=C(SCCO)[C@H](CCCCN(C)C)[C@H]12"
150 h

Then this compound: C[C@@H](O)[C@H]1C(=O)N2C(C(=O)O)=C(SCCN3CCCC3)[C@H](CCCNC(=N)N)[C@H]12 [Example 127, acetic acid salt]
31 h

Then this compound: "C[C@@H](O)[C@H]1C(=O)N2C(C(=O)O)=C(SCCC#N)[C@H](CCSCCN)[C@H]12"
46 h
